Molecular target: T1, EBOV GP on pseudotyped lentiviral particles (Ebola virus (EBOV), UniProt Q05320 33-676)
T1 sequence: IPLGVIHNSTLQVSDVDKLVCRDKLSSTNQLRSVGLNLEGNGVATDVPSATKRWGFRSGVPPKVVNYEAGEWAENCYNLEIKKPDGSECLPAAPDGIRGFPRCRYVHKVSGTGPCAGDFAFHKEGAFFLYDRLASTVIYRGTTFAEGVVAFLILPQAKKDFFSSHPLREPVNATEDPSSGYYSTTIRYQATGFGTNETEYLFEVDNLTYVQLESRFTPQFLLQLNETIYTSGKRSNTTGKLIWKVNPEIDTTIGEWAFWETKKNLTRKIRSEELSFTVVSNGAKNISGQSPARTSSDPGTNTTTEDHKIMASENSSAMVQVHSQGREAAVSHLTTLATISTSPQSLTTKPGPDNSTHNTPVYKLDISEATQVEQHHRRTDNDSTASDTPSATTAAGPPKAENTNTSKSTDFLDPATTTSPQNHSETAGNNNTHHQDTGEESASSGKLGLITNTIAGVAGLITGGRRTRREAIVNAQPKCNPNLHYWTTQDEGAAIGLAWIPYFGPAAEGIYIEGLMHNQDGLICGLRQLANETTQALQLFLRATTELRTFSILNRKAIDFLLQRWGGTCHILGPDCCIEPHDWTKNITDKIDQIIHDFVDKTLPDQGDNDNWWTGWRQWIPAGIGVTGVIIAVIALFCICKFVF
Experiment: cell-based or functional assay
I'd be grateful if you could share measured IC50, neutralization activity in a pseudotyped virus entry assay for these entries.
Answers are plain numbers, in µg/mL.

Below, 3 binders whose answers are already recorded.
>  <Binder>
EboV.YD.02 IgG (antibody, V domains shown) VH: QVQLVQSGAEVKKPGTSVKISCKASGYSFTSKYMHWVRQAPGQGLEWMGKINPSGGRRDYAQKFQGRVTMTRDTSTSTVYMELSSLRSGDTAVYYCARDMHGVLSWYHALDYWGQGTLVTVSS VL: DIRVTQSPSSLSTSVGDRVTITCRASQDIGRYLNWYQQKPGKAPKLLIYGASSLQSGVPSRFSGSGSGTDFTLTISSLQPEDFATYYCQQGYRIPITFGQGTRLEIK

>  <Recorded Measurement>
1.6

$$$$
>  <Binder>
EboV.YD.03 IgG (antibody, V domains shown) VH: QVQLQESGPGLVKPSETLSLTCTVSGDSLSSSYWSWIRQSAGKGLEYIGRTYVSGNTKYNPSLKSRVTMSVDTSKNQFSLRLTSVTAADTAVYYCARIRVLPAAMLRGDYWYFDLWGRGTLVTVSS VL: SYELTQLPSVSVSPGQTASITCSGDKVENKYVCWYQQKSGQSPVLVIYEDSKRPSGIPERFSGSNSGNTATLTISGTQTMDEADYFCQAWDSSIGVFGTGTKLTVL

>  <Recorded Measurement>
1.1

$$$$
>  <Binder>
EboV.YD.04 IgG (antibody, V domains shown) VH: QVQLVESGGGLVKPGGSLRLSCAASGFMFSNAWMNWVRQAPGKGLEWVGRIKSRSDGGTTDYAAPVKGRFTFSREDSKNMLYLQMNSLKREDTAVYYCTTRVSIFRGPIEDVWGQGTTVTVSS VL: QPVLTQPPSVSGAPGQRVTISCAGSSSNIGAGYDVYWYQQLPGTAPKLLIYGNNNRPSGVPDRFSGSKSGTSASLAITGLQAEDEAEYYCQSYDSSLRDSYVFGSGTKVTVL

>  <Recorded Measurement>
0.5

$$$$

Problem: Query: IC50, neutralization activity in a pseudotyped virus entry assay; subject: EboV.YD.01 IgG (antibody, V domains shown) VH: QVRLVQSGGGLVKPGGSLRLSCAASGFTFSTFAMHWVRQAPGKGLEWVSSISRSSGSINYADSVKGRFTISRDNAKNSLFLQMNSLRADDTAVYYCARENTIPFGGGVVLERASHFDYWGQGTTVTVSS VL: DIRVTQSPSSLSASVGDRVTIICRASQSSSTFLNWYQQKPGKAPNLLIYAASSLQSGVPSRFSGSGSGTDFTLTISSLQPEDFATYYCQQSYSAPYTFGQGTKVDIK
Result: 7.1
